Known inhibition at 10 µM of a selection of compounds
System: intracellular T. gondii tachyzoites in HFF monolayers
testMethodNotes: Replication assay
Type: cell-based, Toxoplasma gondii
runParameters: Toxoplasma gondii, read-out: Inhibition of parasite replication
The answer is to be given in %; state only the numeric part.

>>> print(df.to_string())
                             compoundstring                           targetundertest  experimentalendpoint  unitspec  numericreadout
0  CC1=C(C(=O)NCc2ccc(C(F)(F)F)cc2)O[C@@H]2O[C@@]3(C)CC[C@H]4[C@H](C)CC[C@@H]1[C@@]24OO3  intracellular T. gondii tachyzoites in HFF monolayers   inhibition at 10 µM         %              75
1  CC1=C(c2nc(C)no2)O[C@@H]2O[C@@]3(C)CC[C@H]4[C@H](C)CC[C@@H]1[C@@]24OO3  intracellular T. gondii tachyzoites in HFF monolayers   inhibition at 10 µM         %              50

Please find the next compound below.
For the compound `CCNC(=O)C1=C(C)[C@@H]2CC[C@@H](C)[C@@H]3CC[C@@]4(C)OO[C@@]23[C@H](O1)O4` , what inhibition at 10 µM is on record?
50

---

Test system: intracellular T. gondii tachyzoites in HFF monolayers
testMethodNotes: Replication assay
Assay type: cell-based, Toxoplasma gondii
runParameters: Toxoplasma gondii, read-out: Inhibition of parasite replication
experimentalEndpoint: inhibition at 10 µM (%)
The answer is to be given in %; state only the numeric part.

# returns recorded inhibition at 10 µM (system: intracellular T. gondii tachyzoites in HFF monolayers) for `CC1=C(C(=O)NCc2cc(F)cc(F)c2)O[C@@H]2O[C@@]3(C)CC[C@H]4[C@H](C)CC[C@@H]1[C@@]24OO3`
50

# returns recorded inhibition at 10 µM (system: intracellular T. gondii tachyzoites in HFF monolayers) for `CC1=C(C(=O)NCc2ccccc2)O[C@@H]2O[C@@]3(C)CC[C@H]4[C@H](C)CC[C@@H]1[C@@]24OO3`
50

# returns recorded inhibition at 10 µM (system: intracellular T. gondii tachyzoites in HFF monolayers) for `CC1=C(c2nc(-c3ccccc3)no2)O[C@@H]2O[C@@]3(C)CC[C@H]4[C@H](C)CC[C@@H]1[C@@]24OO3`
75

---

Test system: intracellular T. gondii tachyzoites in HFF monolayers
testMethodNotes: Replication assay
Format: cell-based, Toxoplasma gondii
runParameters: Toxoplasma gondii, read-out: Inhibition of parasite replication
Known inhibition at 10 µM of a selection of compounds
The answer is to be given in %; state only the numeric part.

For the compound `CC1=C(C(=O)NCc2ccc(C)cc2)O[C@@H]2O[C@@]3(C)CC[C@H]4[C@H](C)CC[C@@H]1[C@@]24OO3` , what inhibition at 10 µM is on record?
50

For the compound `CC1=C(C(=O)NCc2ccc(F)cc2)O[C@@H]2O[C@@]3(C)CC[C@H]4[C@H](C)CC[C@@H]1[C@@]24OO3` , what inhibition at 10 µM is on record?
75

For the compound `CC1=C(C(=O)NCc2ccc(F)c(F)c2)O[C@@H]2O[C@@]3(C)CC[C@H]4[C@H](C)CC[C@@H]1[C@@]24OO3` , what inhibition at 10 µM is on record?
50

For the compound `CC1=C(c2nc(-c3ccc(S(C)(=O)=O)cc3)cs2)O[C@@H]2O[C@@]3(C)CC[C@H]4[C@H](C)CC[C@@H]1[C@@]24OO3` , what inhibition at 10 µM is on record?
75
